system: Ras-related protein Rab-7a (dog), GTP binding; assay: blockers of fluorescent GTP binding to Rab7 – biochemical, wildtype, multiplex bead flow cytometry, dose response (AID 1336); conditions: bead-based flow cytometry; series mostly up to 100 µM
Measured potencies and affinities stand elsewhere. The source made the active and inactive calls. How the calls were made is not given here.
Property: GTP binding, % of control

O=C(O)c1ccc(CNCc2ccc(F)cc2)cc1 :: inactive
O=C(CSc1nnc2c(n1)[nH]c1ccccc12)Nc1ccc(S(=O)(=O)Nc2ncccn2)cc1 :: inactive
O=C(C[n+]1cccc(CNC(=O)c2ccc(OC(F)F)cc2)c1)Nc1ccccc1Cl :: inactive
Cn1cccc1/C=C1\SC(=S)N(NC(=O)c2ccccc2Cl)C1=O :: inactive
CCCCCN1CC(O)=C(c2nc(-c3ccc(Cl)cc3)cs2)C1=N :: inactive

// batch mode: one GTP binding, % of control value per listed entry
1. CC(=O)NC1CC2CCCC(C1)N2C(=O)Nc1ccccc1 (stereo not given)
2. CS(=O)(=O)N1N=C(c2ccccc2)CC1c1ccc2c(c1)OCO2 (stereo not given)
3. COc1ccc(/C=C2/N=C(SCC(=O)Nc3cc(C)on3)N(c3ccccc3)C2=O)cc1
4. CC1=C(C#N)c2nc(N)c(C#N)c(C)c2/C1=C\c1ccc(-c2ccccc2C(=O)O)o1
5. COc1ccccc1OCCn1cc(C(=O)O)c2c(C)cccc21

RESULT:
1. inactive
2. inactive
3. inactive
4. inactive
5. inactive

* * *

I'd appreciate it if you could supply percent of DMSO control GFP values for the items below.
assay: rapamycin-like changes in RPL19A-GFP expression – cell-based, S. cerevisiae, multiplex flow cytometry, primary screen (AID 1862);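 further: lower values mimic rapamycin by blocking the RPL19A rise seen in DMSO cells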; conditions: S. cerevisiae RPL19A-GFP strain, flow cytometry fluorescence, 3 h; at 10 µM; stronger effect = lower value
Inconclusive results are not listed.
One number for each entry, in %.

CCOC(=O)C1(Cc2cccc(Cl)c2)CCCN(C2CCN(C(C)=O)CC2)C1 (stereo not drawn) :: 101
COc1ccccc1Oc1c(C)oc2c(CN3CCN(CCO)CC3)c(O)ccc2c1=O :: 104
COc1cccc2c1OCC1COc3c(c(=O)n(C)c(=O)n3C)C21 (stereo not drawn) :: 101
CC(C)CCC1(CCNC(C)c2cccs2)CCOC(C)(C)C1 (stereo not drawn) :: 102
CC1(C)CC(=O)c2cnc(NC(=O)C3CCCC3)nc2C1 :: 105

Give percent of DMSO control GFP for all compounds that follow.
1. CCCc1cc(C(N)=S)ccn1
2. COc1cc(CNCCc2ccccc2F)ccc1OCC(=O)N1CCCCC1
3. C[C@]12CCC(=O)C=C1[C@H](O)C[C@@H]1[C@@H]2[C@@H](O)C[C@@]2(C)[C@H]1CC[C@]2(O)C(=O)CO
4. C[N+](C)(C)CCCCCCCCCC[N+](C)(C)C

RESULT:
96.9
98.6
106
94.4

Would you mind listing percent of DMSO control GFP for each of the following compounds?
1. COc1ccc2c3c([nH]c2c1)C1(NCC3)C(=O)Nc2ccccc21 (stereo not drawn)
2. CCOC(=O)C(NC(=O)CCC(=O)Nc1ccc(S(N)(=O)=O)cc1)C(O)c1ccccc1 (stereo not drawn)
3. COc1ccc2[nH]c3c(=O)n(/N=C/[C@H]4C(C)C=C(C)CC4C)c(=O)[nH]c3c2c1 (stereo partly drawn)
4. O=C(O)C(O)c1ccccc1 (stereo not drawn)
5. CCCNCC(O)COc1ccccc1C(=O)CCc1ccccc1 (stereo not drawn)

RESULT:
[95.4, 96.5, 99.9, 101, 101]

Give percent of DMSO control GFP for each listed item.
1. COc1cc(/C=C/C(=O)O)cc(S(=O)(=O)NCCCO)c1OC
2. CC(C)(C)NCC(O)COc1ccccc1C(=O)CCc1ccccc1 (stereo not drawn)
3. Oc1ccccc1OCCOc1ccccc1OCCOc1ccccc1O
4. COCCOC(=O)C1=C(N)OC2=C(C(=O)CCC2)C1c1cccnc1 (stereo not drawn)
5. O=C(NC(=S)N1CCCCC1)c1cccnc1
6. Cc1ccc2nc(N=C(N)N)nc(C)c2c1
7. CCc1ccc(/C=C2\Oc3cc(OC(=O)N4CCOCC4)ccc3C2=O)cc1

RESULT:
1. 97.3
2. 101
3. 100
4. 105
5. 102
6. 111
7. 98.7

// batch mode: one percent of DMSO control GFP value per listed entry
1. CC(C)N(Cc1nccn1C)C(=O)CC1C(=O)NCCN1Cc1ccccc1C(F)(F)F (stereo not drawn)
2. O=C(NC(=S)Nc1ccc(N2CCN(C(=O)c3ccccc3)CC2)cc1)c1cccs1

RESULT:
1. 102
2. 96.3

* * *

target: Beta-2 adrenergic receptor (Homo sapiens) (UniProt P07550); test: agonist-induced loss of surface beta2AR – cell-based, FAP fluorogen, flow cytometry, validation set, pilot screen (AID 504459); conditions: Am2.2-beta2AR cells, at 10 µM, stronger effect = higher value;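 further: agonist-driven loss of surface beta2AR via internalization measured by FAP dye flow cytometry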
Sequence (P07550 whole entry, looked up): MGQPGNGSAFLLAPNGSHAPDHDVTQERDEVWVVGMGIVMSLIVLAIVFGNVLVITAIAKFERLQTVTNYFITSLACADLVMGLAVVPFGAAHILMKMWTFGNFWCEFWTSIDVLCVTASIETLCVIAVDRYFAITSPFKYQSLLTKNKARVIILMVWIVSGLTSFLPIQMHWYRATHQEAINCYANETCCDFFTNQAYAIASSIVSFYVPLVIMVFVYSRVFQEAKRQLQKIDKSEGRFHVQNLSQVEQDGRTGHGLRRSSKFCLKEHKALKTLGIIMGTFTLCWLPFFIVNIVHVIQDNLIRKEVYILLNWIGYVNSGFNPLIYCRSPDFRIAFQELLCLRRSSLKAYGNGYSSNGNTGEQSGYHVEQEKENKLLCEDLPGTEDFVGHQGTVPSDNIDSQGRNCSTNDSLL
Property: response (%)
One number for each entry, in %.

Provide response values for the following items, in order.
1. COc1cc(C)nc(-n2nc(C)cc2OC)n1
2. COc1cc(C2Nc3ccccc3NC3=C2C(=O)CC(c2ccc(OC)c(OC)c2)C3)ccc1O (stereo not given)
3. CCCC(=O)Nc1ccccc1NC(C)=O
4. C[C@]12CC[C@@H]3c4ccc(O)cc4CC[C@H]3[C@@H]1C[C@@H](O)[C@@H]2O[C@@H]1O[C@H](C(=O)O)[C@@H](O)[C@H](O)[C@H]1O
5. O=C(NCCNc1ccc(Cl)cc1[N+](=O)[O-])c1cccnc1

RESULT:
[-8.04, 0.79, 5.03, -7.17, -6.88]

* * *

Field: response. Provide a value for each of the compounds that follow.
test: cytosolic pH regulators acting via V-ATPase – S. cerevisiae, pHLuorin, HTS validation (AID 504600); conditions: V-ATPase proton transport, at 10 µM, stronger effect = higher value;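 further: plate controls were DMSO for no effect and reference compound for full effect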
Answers are plain numbers, in %.

// worked examples, response included
NS(=O)(=O)c1cc2c(cc1Cl)NCNS2(=O)=O :: 0.56
NS(=O)(=O)c1cc(C2(O)NC(=O)c3ccccc32)ccc1Cl (stereo not drawn) :: 1.36
Cc1ccc(SCC(=O)Nc2nccs2)cc1 :: -0.83
COc1ccc2c(c1OC)C(=O)N1C2SC[C@H]1C(=O)NC1CC(C)(C)NC(C)(C)C1 (stereo partly drawn) :: -0.76
Cc1cn([C@H]2C[C@H](N=[N+]=[N-])[C@@H](CO)O2)c(=O)[nH]c1=O :: 9.2
CC(NC(=O)OCc1ccccc1)C(=O)N1CC(O)CC1C(=O)O (stereo not drawn) :: -4.2
O=C1CC[C@@H](CN(Cc2ccccc2)Cc2cn[nH]c2-c2cc3ccccc3o2)N1 :: 3.87
CCC1(c2ccccc2)NC(=S)N(c2ccc(C)c(C)c2)N1 (stereo not drawn) :: 2.75

Consider the following items and state reported response for each.
1. CCC(C(=O)Nc1ccc2c(c1)OCCO2)c1ccccc1 (stereo not drawn)
2. CC(=O)[C@H]1CC[C@H]2[C@@H]3C[C@H](C)C4=CC(=O)CC[C@]4(C)[C@H]3[C@@H](O)C[C@]12C
3. COc1cc(C(=S)N(C)C)ccc1O
4. CO[C@@]1(NC(=O)Cc2cccs2)C(=O)N2C(C(=O)O)=C(COC(N)=O)CS[C@@H]21
5. CCOc1ccc(C(=O)N2CCCC2C(=O)O)cc1 (stereo not drawn)
6. COc1ccc(CCN=CC2=C(O)CC(C)(C)CC2=O)cc1
7. COc1ccc(NC2=C(Cl)C(=O)N(c3ccccc3)C2=O)c(OC)c1
8. CC(C)Oc1ccc2c(=O)c(-c3ccccc3)coc2c1

RESULT:
1. -0.08
2. 2.7
3. 3.06
4. -0.45
5. 6.32
6. 2.74
7. 1.06
8. 1.01

Provide response values for the following items, in order.
1. COc1cc(C(=O)NCCCCCC(=O)O)cc(OC)c1OC
2. CCn1ccnc1CN(C)Cc1cn(-c2cccc(C)c2)nc1-c1cccc(F)c1
3. COc1ccc2[nH]c(=O)c(CN(C(=O)c3ccco3)C(C)C)cc2c1
4. CCOc1cc2c3c(c1)C(C)=CC(C)(C)N3C(=O)C2=O
5. CC(C(=O)O)c1ccc(-c2ccccc2)c(F)c1 (stereo not drawn)
6. Cc1cc(Cl)cc2c1NC(=O)[C@]21[C@@H]2C(=O)N(Cc3ccccc3)C(=O)[C@@H]2[C@@H]2CCCN21

RESULT:
1.93
3.23
-5.39
-5.76
-1.04
3.96

QUERY: Please report response for the following compound: O=Cc1ccccc1Oc1ccccc1
RESULT: -3.79

* * *

Can you tell me double positive events for the items I'm about to list?
test: reduced mouse 2C T cell binding to pMHC/ICAM-1 vesicles – MLPCN validation set, flow cytometry, LFA-1/ICAM-1 modulator project, pilot screen (AID 2523); details: 2C mouse CD8+ T cells, at 7 µM, stronger effect = lower value; measured here: CD8+/vesicle+ event percentage
One number for each entry, in %.

Would you please look over these solved cases?
COc1ccc(C(Cl)=C(c2ccc(OC)cc2)c2ccc(OC)cc2)cc1 :: 62.9
O=C(CCCN1C(=O)/C(=C\c2cccc(Br)c2)SC1=S)Nc1cccnc1 :: 57.4
O=Cc1ccc(OC(=O)c2cccnc2)cc1 :: 58.7
O=C(O)CCCCCNC(=O)Nc1ccc2c(c1)OCCO2 :: 49.7
COc1cccc(CC2CC(=O)N(c3ccc4c(C)cc(=O)oc4c3)C2=O)c1 (stereo not drawn) :: 61
C[C@@H]1CCC[C@H](C)N1NC(=O)c1ccc(Cl)c(S(N)(=O)=O)c1 :: 61.3

Provide the reported double positive events of each entry below, same order.
1. C[C@]12CC[C@@H]3c4ccc(O)cc4CC[C@H]3[C@@H]1CC[C@@H]2OC(=O)CCC(=O)O
2. Cc1ccc2ncnc(NCCCCCC(=O)O)c2c1
3. Nc1nc(SCc2ccc([N+](=O)[O-])cc2)c2ncn(C3OC(CO)C(O)C3O)c2n1 (stereo not drawn)
4. Nc1c(C(=O)c2ccccc2)oc2ccccc12
5. COc1ccccc1C(=O)Oc1ccc2c(c1)O/C(=C\c1ccncc1)C2=O

RESULT:
62.4
64.6
63.2
66
63.9
